Data provenance is PubChem BioAssay AID1159580.

Experiment summary: chemical genetic growth profiling, strain panel (AID 1159580);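 note: tested at 20 µM; growth read once vehicle control cultures reached saturation at 30 °C; 1 = growth at the plate median or of vehicle wells; lower values mean less growth of the strain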
Measurement conditions: S. cerevisiae deletion strains, growth OD, locus YML120C, strain ndi1, active compounds read low
Among all 5,500 compounds or so, about 2,000 (36%) were called active. Another 18% or so got no clear call; they are omitted. Some of the results follow.
Metric name: normalized growth
// print number alone

{"Compound": "C=C1CCC2[C@](C)(CO)[C@H](O)CC[C@@]2(C)[C@@H]1C/C=C1/C(=O)OC[C@H]1O (stereo not given in full)", "Observed result": 1}
{"Compound": "O=C(Oc1cc(O)cc2c1C[C@@H](OC(=O)c1cc(O)c(O)c(O)c1)[C@@H](c1cc(O)c(O)c(O)c1)O2)c1cc(O)c(O)c(O)c1", "Observed result": 1.01}
{"Compound": "C[C@]12CCC(=O)C=C1C=CC1C2CC[C@@]2(C)C1CC[C@@]2(O)CCC(=O)O (stereo not given in full)", "Observed result": 1.02}
{"Compound": "O=C(O)CCCc1ccccc1", "Observed result": 1}

Query: normalized growth; subject: `COc1ccc(-c2coc3cc(O)ccc3c2=O)c(OC)c1`
1.02

Query: normalized growth; subject: `NCCS(=O)(=O)O`
0.963

Query: normalized growth; subject: `O=C(Oc1cc(OC(=O)c2ccccc2)c2c(c1)O[C@H](c1ccc(OC(=O)c3ccccc3)c(OC(=O)c3ccccc3)c1)[C@@H](OC(=O)c1ccccc1)C2)c1ccccc1`
1.01

###

Here, each record is paired with measured normalized growth data.
Experiment summary: chemical genetic growth profiling, strain panel (AID 1159580);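 note: tested at 20 µM; growth read once vehicle control cultures reached saturation at 30 °C; 1 = growth at the plate median or of vehicle wells; lower values mean less growth of the strain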
Measurement conditions: S. cerevisiae deletion strains, growth OD, locus YBL061C, strain skt5, active compounds read low
In all, about 5,500 compounds went through this assay and about 2,000 (36%) were called active. About 18% were inconclusive and are not listed. The list shows a part of the results.
// print number alone

{"Compound": "COc1ccc(-c2coc3cc(O)ccc3c2=O)cc1", "normalized growth": 0.983}

Query: normalized growth; subject: `CCOC(=O)n1ccn(C)c1=S`
1.01

Query: normalized growth; subject: N=c1ccn2c(n1)OC1C(O)C(CO)OC12 (stereo unspecified)
1.01

Query: normalized growth; subject: COc1ccc2c(c1)OC1(O)COc3cc(OC)c(OC)cc3C1=C2 (stereo unspecified)
0.968

Query: normalized growth; subject: `COc1ccc(-c2coc3cc(O)ccc3c2=O)c(O)c1O`
0.825

Query: normalized growth; subject: CCN1CCCC(OC(=O)C(c2ccccc2)c2ccccc2)C1 (stereo unspecified)
0.982

Query: normalized growth; subject: `CCN(CC)Cc1ccc(Nc2ccnc3cc(Cl)ccc23)cc1O`
1.03

Query: normalized growth; subject: `NS(=O)(=O)c1cc2c(cc1Cl)NC=NS2(=O)=O`
1

Query: normalized growth; subject: COc1cc([C@@H]2c3cc4c(cc3C(OC3O[C@@H]5COC(C)O[C@H]5[C@H](O)[C@H]3O)C3COC(=O)[C@@H]32)OCO4)cc(OC)c1O (stereo partly specified)
1.02

Query: normalized growth; subject: `Nc1ncn[nH]1`
1.02

Query: normalized growth; subject: `Cc1ncc(CNC(=O)N(CCCl)N=O)c(N)n1`
1.01

###

Experiment summary: chemical genetic growth profiling, strain panel (AID 1159580);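 note: tested at 20 µM; growth read once vehicle control cultures reached saturation at 30 °C; 1 = growth at the plate median or of vehicle wells; lower values mean less growth of the strain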
Measurement conditions: S. cerevisiae deletion strains, growth OD, locus YDL074C, strain BRE1, active compounds read low
About 2,000 (36%) of roughly 5,500 compounds were called active. Another 18% or so got no clear call; they are omitted. The list shows a part of the results.
The label is label 1 for normalized growth below 1 and label 0 for normalized growth equal to or exceeding 1.

Just wondering, is normalized growth of `COc1ccc2c(c1)OC/C(=C\c1ccc(OC)c(O)c1)C2=O` below 1?
label 1

Just wondering, is normalized growth of C=C[C@@](C)(O)CCC1C(=C)C[C@H](OC(C)=O)C2C(C)(C)CCCC12C (stereo partly drawn) below 1?
label 1

Just wondering, is normalized growth of Clc1ccc(C(OCCN2CCCCC2)c2ccccc2)cc1 (stereo not drawn) below 1?
label 1

Just wondering, is normalized growth of `CC[C@@]1(O)C[C@H](O[C@H]2C[C@H](N(C)C)[C@H](O)[C@H](C)O2)c2c(cc3c(c2O)C(=O)c2c(O)cccc2C3=O)[C@H]1C(=O)OC` below 1?
label 1

Just wondering, is normalized growth of `Cc1ccc(S(=O)(=O)NC(=O)NN2CCCCCC2)cc1` below 1?
label 0

Just wondering, is normalized growth of `CC[C@@]1(O)C[C@H](O)c2c(cc3c(c2O)C(=O)c2c(O)ccc(O)c2C3=O)[C@H]1C(=O)OC` below 1?
label 1

Just wondering, is normalized growth of `COc1ccc2c(c1)OC/C(=C/c1ccc(OC)c(OC)c1)C2=O` below 1?
label 1

Just wondering, is normalized growth of Cc1ccccc1C(OCCN(C)C)c1ccccc1 (stereo not drawn) below 1?
label 1

Just wondering, is normalized growth of C=C1CCC2[C@](C)(CO)[C@H](O)CC[C@@]2(C)[C@@H]1C/C=C1/C(=O)OC[C@H]1O (stereo partly drawn) below 1?
label 0

Just wondering, is normalized growth of `CC[C@H]1OC(=O)[C@H](C)[C@@H](O[C@H]2C[C@@](C)(OC)[C@@H](O)[C@H](C)O2)[C@H](C)[C@@H](O[C@@H]2O[C@H](C)C[C@H](N(C)C)[C@H]2O)[C@](C)(OC)C[C@@H](C)C(=O)[C@H](C)[C@@H](O)[C@]1(C)O` below 1?
label 1
